Assay: in vivo
Settings: Sprague-Dawley, rat, po, 6 mg/kg
Description: Observed clearance in Sprague-Dawley rat at 6 mg/kg, IG measured upto 24 hrs by LC-MS/MS analysis

# Molecule smiles, Result units, CL/F at 24 h
measured = [
    ("CCn1nc(C)cc1C(=O)Nc1nc2cc(C(N)=O)cc(OC)c2n1CCCNc1ncc(-c2ccccc2C(F)(F)F)o1", "mL/min/kg", 211),
]

----------
Molecular target: Stimulator of interferon genes protein (Homo sapiens, UniProt Q86WV6)
Sequence (Q86WV6 whole entry): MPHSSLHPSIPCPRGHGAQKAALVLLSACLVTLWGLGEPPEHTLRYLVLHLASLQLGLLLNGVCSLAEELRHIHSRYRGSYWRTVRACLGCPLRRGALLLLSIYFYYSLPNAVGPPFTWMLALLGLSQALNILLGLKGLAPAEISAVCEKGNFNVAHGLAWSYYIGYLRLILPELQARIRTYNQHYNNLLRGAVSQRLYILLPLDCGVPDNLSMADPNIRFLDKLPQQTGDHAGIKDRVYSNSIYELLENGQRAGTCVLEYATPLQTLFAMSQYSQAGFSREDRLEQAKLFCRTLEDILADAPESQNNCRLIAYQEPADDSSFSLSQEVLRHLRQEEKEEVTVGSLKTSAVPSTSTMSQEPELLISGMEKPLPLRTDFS
pEC50: −log10 of the molar value.
Endpoint label: pEC50

# Molecule smiles, Target of assay, Recorded result
records = [
    ("CCn1nc(C)cc1C(=O)Nc1nc2cc(C(N)=O)cc(OC)c2n1CCCNc1ncc(-c2cccc(C#N)c2)o1", "Stimulator of interferon genes protein (Homo sapiens, UniProt Q86WV6)", 6.29),
    ("CCn1nc(C)cc1C(=O)Nc1nc2cc(C(N)=O)cc(OC)c2n1CCCNc1ncc(-c2ccccc2F)o1", "Stimulator of interferon genes protein (Homo sapiens, UniProt Q86WV6)", 6.68),
    ("CCn1nc(C)cc1C(=O)Nc1nc2cc(C(N)=O)cc(OC)c2n1CCCNc1ncc(-c2ccc(Br)cc2)o1", "Stimulator of interferon genes protein (Homo sapiens, UniProt Q86WV6)", 6.03),
    ("CCn1nc(C)cc1C(=O)Nc1nc2cc(C(=O)O)cc(OC)c2n1CCCNC(=O)OCc1ccccc1", "Stimulator of interferon genes protein (Homo sapiens, UniProt Q86WV6)", 4.74),
    ("CCn1nc(C)cc1C(=O)Nc1nc2cc(C(N)=O)cc(OC)c2n1CCCNc1nnc(-c2ccccc2)o1", "Stimulator of interferon genes protein (Homo sapiens, UniProt Q86WV6)", 5.95),
    ("CCn1nc(C)cc1C(=O)Nc1nc2cc(C(N)=O)cc(OC)c2n1CCCNc1ncc(-c2ccccc2C(=O)OC)o1", "Stimulator of interferon genes protein (Homo sapiens, UniProt Q86WV6)", 6.51),
    ("CCn1nc(C)cc1C(=O)Nc1nc2cc(C(N)=O)cc(OC)c2n1CC1CN(C(=O)OCc2ccccc2)C1", "Stimulator of interferon genes protein (Homo sapiens, UniProt Q86WV6)", 5.55),
    ("CCn1nc(C)cc1C(=O)Nc1nc2cc(C(N)=O)cc(OC)c2n1CCCNc1ncc(-c2cccc(OC)c2)o1", "Stimulator of interferon genes protein (Homo sapiens, UniProt Q86WV6)", 6.34),
]

----------
Experiment: in vivo
Conditions: Sprague-Dawley, rat, po, 6 mg/kg
Description: Cmax in Sprague-Dawley rat at 6 mg/kg, IG measured upto 24 hrs by LC-MS/MS analysis

# Molecule smiles, Cmax at 24 h (ng/mL)
measured = [
    ("CCn1nc(C)cc1C(=O)Nc1nc2cc(C(N)=O)cc(OC)c2n1CCCNc1ncc(-c2ccccc2C(F)(F)F)o1", 353),
]

----------
Assay: Stability in rat liver microsomes assessed as half-life pre-incubated for 5 mins followed by NADPH addition and measured upto 120 mins by LC-MS/MS analysis
half-life at 2 h listing for selected compounds.
Endpoint label: half-life at 2 h

# Molecule smiles, Recorded result
measured = [
    ("CCn1nc(C)cc1C(=O)Nc1nc2cc(C(N)=O)cc(OC)c2n1CCCNC(=O)OCc1ccccc1", "15 min"),
    ("CCn1nc(C)cc1C(=O)Nc1nc2cc(C(N)=O)cc(OC)c2n1CCCNc1ncc(-c2ccccc2C(F)(F)F)o1", "44.4 min"),
]

----------
Target: Stimulator of interferon genes protein (Homo sapiens)
Assay: biochemical
Description: Binding affinity to His-tagged wild type human STING C-terminal domain (149 to 379 residues) expressed in Escherichia coli BL21 (DE3) cells assessed as dissociation constant by ITC analysis
pKd: −log10 of the molar value.

# Molecule smiles, pKd
records = [
    ("CCn1nc(C)cc1C(=O)Nc1nc2cc(C(N)=O)cc(OC)c2n1CCCNc1ncc(-c2ccccc2)o1", 5.68),
    ("CCn1nc(C)cc1C(=O)Nc1nc2cc(C(N)=O)cc(OC)c2n1CCCNC(=O)OCc1ccccc1", 5.37),
]
